FYI, the data here is from ChEMBL document CHEMBL3867433.

MIC listing for selected molecules.
tested on: Staphylococcus aureus; assay: Antibacterial activity against Staphylococcus aureus after 24 hrs by broth dilution method; type: functional
Your answer should be a plain number; it is taken to be in µg/mL.

[[record]]
molecule = "Nc1nnc(CS(=O)(=O)/C=C\\c2ccc(Cl)cc2)s1"
test_system = "Staphylococcus aureus"
parameter = "MIC"
unit = "µg/mL"
test_value = 25

[[record]]
molecule = "Nc1nnc(CS(=O)(=O)c2n[nH]cc2-c2ccc(Cl)cc2)s1"
test_system = "Staphylococcus aureus"
parameter = "MIC"
unit = "µg/mL"
test_value = 50

[[record]]
molecule = "Nc1nnc(CS(=O)(=O)c2c[nH]cc2-c2ccc(Cl)cc2)s1"
test_system = "Staphylococcus aureus"
parameter = "MIC"
unit = "µg/mL"
test_value = 50


Next item in the queue.
Prompt: # get_value(readout='MIC', item= O=C(N[C@H](CO)[C@H](O)c1ccc([N+](=O)[O-])cc1)C(Cl)Cl [CHLORAMPHENICOL] )
Completion: 6.25

* * *

test: Antifungal activity against Penicillium chrysogenum assessed as inhibition of spore germination at 100 ug/well after 48 hrs by agar well diffusion method; format: functional
parameter: inhibition zone (IZ)

Study these solved cases before continuing.
[[record]]
compound = "Cc1ccc(-c2c[nH]nc2S(=O)(=O)Cc2nnc(N)o2)cc1"
parameter = "inhibition zone (IZ)"
test_value = "14 mm"

[[record]]
compound = "Nc1nnc(CS(=O)(=O)C2=NNCC2c2ccccc2)s1 (stereo unspecified)"
parameter = "inhibition zone (IZ)"
test_value = "12 mm"

[[record]]
compound = "Nc1nnc(CS(=O)(=O)/C=C\\c2ccccc2)s1"
parameter = "inhibition zone (IZ)"
test_value = "35 mm"


Prompt: # get_value(readout='inhibition zone (IZ)', item= Nc1nnc(CS(=O)(=O)c2n[nH]cc2-c2ccc(Cl)cc2)s1 )
Completion: 38 mm

Prompt: # get_value(readout='inhibition zone (IZ)', item= Nc1nnc(CS(=O)(=O)c2n[nH]cc2-c2ccccc2)o1 )
Completion: 16 mm

Prompt: # get_value(readout='inhibition zone (IZ)', item= Nc1nnc(CS(=O)(=O)c2n[nH]cc2-c2ccc(Cl)cc2)o1 )
Completion: 17 mm

* * *

test system: Staphylococcus aureus; test: Antibacterial activity against Staphylococcus aureus at 50 ug/well after 24 hrs by agar well diffusion method; format: functional; conditions: read-out: DIZ
parameter: zone of inhibition at 50 µg/disc (mm)
Your answer should be a plain number; it is taken to be in mm.

Study these solved cases before continuing.
[[record]]
compound_smiles = "Nc1nnc(CS(=O)(=O)c2n[nH]cc2-c2ccccc2)o1"
unit = "mm"
test_value = 10

[[record]]
compound_smiles = "Nc1nnc(CS(=O)(=O)/C=C\\c2ccccc2)s1"
unit = "mm"
test_value = 23


Prompt: # get_value(readout='zone of inhibition at 50 µg/disc', item= Nc1nnc(CS(=O)(=O)c2n[nH]cc2-c2ccc(Cl)cc2)o1 )
Completion: 12

Prompt: # get_value(readout='zone of inhibition at 50 µg/disc', item= Cc1ccc(-c2c[nH]cc2S(=O)(=O)Cc2nnc(N)s2)cc1 )
Completion: 19

* * *

system: Pseudomonas aeruginosa; test: Antibacterial activity against Pseudomonas aeruginosa at 12.5 ug/well after 24 hrs by agar well diffusion method; type: functional; details: read-out: DIZ
zone of inhibition at 12.5 µg/disc listing for selected compounds.
Your answer should be a plain number; it is taken to be in mm.

Study these solved cases before continuing.
[[record]]
compound_smiles = "Nc1nnc(CS(=O)(=O)c2c[nH]cc2-c2ccc(Cl)cc2)s1"
test_value = 20

[[record]]
compound_smiles = "Nc1nnc(CS(=O)(=O)c2c[nH]cc2-c2ccc(Cl)cc2)o1"
test_value = 9

[[record]]
compound_smiles = "Cc1ccc(-c2c[nH]nc2S(=O)(=O)Cc2nnc(N)s2)cc1"
test_value = 20

[[record]]
compound_smiles = "Nc1nnc(CS(=O)(=O)c2c[nH]cc2-c2ccccc2)o1"
test_value = 8


Next item in the queue.
Prompt: # get_value(readout='zone of inhibition at 12.5 µg/disc', item= Cc1ccc(-c2c[nH]nc2S(=O)(=O)Cc2nnc(N)o2)cc1 )
Completion: 9
